biological target: PI3Kα (Homo sapiens, UniProt P42336)
Sequence (P42336 whole entry): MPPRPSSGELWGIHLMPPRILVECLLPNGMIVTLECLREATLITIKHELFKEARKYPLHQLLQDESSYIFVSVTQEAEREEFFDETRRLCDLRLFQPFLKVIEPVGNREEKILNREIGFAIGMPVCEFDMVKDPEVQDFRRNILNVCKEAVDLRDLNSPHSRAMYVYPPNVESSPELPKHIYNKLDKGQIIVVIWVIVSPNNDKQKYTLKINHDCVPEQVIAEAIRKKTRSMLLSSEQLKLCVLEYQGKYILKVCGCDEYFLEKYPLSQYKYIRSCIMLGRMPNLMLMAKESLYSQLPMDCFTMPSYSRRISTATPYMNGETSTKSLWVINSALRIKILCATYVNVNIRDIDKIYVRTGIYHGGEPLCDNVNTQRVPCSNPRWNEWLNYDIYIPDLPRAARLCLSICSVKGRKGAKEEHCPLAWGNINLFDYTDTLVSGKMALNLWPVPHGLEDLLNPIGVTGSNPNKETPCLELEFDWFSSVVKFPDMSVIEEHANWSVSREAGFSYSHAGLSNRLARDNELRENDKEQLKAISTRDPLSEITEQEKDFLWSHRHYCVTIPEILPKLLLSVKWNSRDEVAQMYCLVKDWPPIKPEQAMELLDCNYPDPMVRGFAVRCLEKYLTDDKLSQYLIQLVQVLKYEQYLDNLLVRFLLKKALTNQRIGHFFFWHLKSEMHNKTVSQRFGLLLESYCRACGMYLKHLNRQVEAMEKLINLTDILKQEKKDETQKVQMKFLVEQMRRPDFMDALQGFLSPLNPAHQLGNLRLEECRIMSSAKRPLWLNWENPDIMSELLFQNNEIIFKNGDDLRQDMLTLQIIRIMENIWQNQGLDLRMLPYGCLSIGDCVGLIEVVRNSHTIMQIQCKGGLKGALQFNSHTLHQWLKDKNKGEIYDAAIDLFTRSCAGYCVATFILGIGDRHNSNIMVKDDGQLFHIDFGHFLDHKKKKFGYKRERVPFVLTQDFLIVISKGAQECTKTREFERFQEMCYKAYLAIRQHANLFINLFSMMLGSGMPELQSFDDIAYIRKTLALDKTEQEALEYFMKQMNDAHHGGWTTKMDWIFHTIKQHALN
Sequence (P27986 whole entry partner): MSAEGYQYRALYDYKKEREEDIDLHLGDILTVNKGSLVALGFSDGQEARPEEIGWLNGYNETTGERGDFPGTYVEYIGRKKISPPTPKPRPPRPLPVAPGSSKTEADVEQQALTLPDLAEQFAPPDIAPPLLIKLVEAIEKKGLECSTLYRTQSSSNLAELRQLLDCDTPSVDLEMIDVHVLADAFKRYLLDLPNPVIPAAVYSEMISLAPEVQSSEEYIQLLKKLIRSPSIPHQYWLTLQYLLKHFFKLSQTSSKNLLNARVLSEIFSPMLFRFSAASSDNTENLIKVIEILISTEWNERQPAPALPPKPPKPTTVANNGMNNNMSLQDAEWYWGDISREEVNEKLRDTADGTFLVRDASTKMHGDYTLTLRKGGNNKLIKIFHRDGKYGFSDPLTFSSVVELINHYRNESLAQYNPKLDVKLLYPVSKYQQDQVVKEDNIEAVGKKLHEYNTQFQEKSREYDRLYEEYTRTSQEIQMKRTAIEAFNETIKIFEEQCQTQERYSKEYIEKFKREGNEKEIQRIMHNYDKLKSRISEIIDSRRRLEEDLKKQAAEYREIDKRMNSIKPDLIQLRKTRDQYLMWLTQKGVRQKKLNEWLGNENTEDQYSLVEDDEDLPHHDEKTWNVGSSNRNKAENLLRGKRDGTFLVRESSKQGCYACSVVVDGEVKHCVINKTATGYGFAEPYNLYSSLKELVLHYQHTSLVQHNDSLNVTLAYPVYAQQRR
measured attribute: IC50 (nM)
Numbers only, in nM.

**Query** Request the reported IC50 associated with C=CC(=O)N1CCOc2ccc(-c3csc4c(=O)cc(N5CCOCC5)oc34)cc21
**Result** 64

---

test system: Ibrutinib-resistant Granta cells; assay: Alamar Blue cell viability assay; format: cell-based; conditions: Homo sapiens, 48 h, read-out: antiproliferative IC50 Granta
measured attribute: IC50 (µM)
Numbers only, in µM.

**Query** What value of measured IC50 is listed for C=CC(=O)N1CCC[C@@H](n2nc(-c3ccc(Oc4ccccc4)cc3)c3c(N)ncnc32)C1 [Ibrutinib, reference compound] ?
**Result** 20

Source listed as paper PMC8445847.
